Taken from patent US20110105397A1.

- PROCEDURE DETAILS: in vivo
- CONDITIONS USED: dog, iv, 43 ng/kg/min
READOUT TYPE: level at 0.5 h (ng/mL)

# SUBSTANCE, MEASURED
rows = [
    ("H-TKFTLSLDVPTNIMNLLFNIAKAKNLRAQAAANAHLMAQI-NH2 [SEQ ID NO: 1]", 4.58),
]
